For each of the compounds below, state its inhibition.
tgt: Epidermal growth factor receptor (Homo sapiens) (UniProt P00533)
Sequence (P00533 whole entry): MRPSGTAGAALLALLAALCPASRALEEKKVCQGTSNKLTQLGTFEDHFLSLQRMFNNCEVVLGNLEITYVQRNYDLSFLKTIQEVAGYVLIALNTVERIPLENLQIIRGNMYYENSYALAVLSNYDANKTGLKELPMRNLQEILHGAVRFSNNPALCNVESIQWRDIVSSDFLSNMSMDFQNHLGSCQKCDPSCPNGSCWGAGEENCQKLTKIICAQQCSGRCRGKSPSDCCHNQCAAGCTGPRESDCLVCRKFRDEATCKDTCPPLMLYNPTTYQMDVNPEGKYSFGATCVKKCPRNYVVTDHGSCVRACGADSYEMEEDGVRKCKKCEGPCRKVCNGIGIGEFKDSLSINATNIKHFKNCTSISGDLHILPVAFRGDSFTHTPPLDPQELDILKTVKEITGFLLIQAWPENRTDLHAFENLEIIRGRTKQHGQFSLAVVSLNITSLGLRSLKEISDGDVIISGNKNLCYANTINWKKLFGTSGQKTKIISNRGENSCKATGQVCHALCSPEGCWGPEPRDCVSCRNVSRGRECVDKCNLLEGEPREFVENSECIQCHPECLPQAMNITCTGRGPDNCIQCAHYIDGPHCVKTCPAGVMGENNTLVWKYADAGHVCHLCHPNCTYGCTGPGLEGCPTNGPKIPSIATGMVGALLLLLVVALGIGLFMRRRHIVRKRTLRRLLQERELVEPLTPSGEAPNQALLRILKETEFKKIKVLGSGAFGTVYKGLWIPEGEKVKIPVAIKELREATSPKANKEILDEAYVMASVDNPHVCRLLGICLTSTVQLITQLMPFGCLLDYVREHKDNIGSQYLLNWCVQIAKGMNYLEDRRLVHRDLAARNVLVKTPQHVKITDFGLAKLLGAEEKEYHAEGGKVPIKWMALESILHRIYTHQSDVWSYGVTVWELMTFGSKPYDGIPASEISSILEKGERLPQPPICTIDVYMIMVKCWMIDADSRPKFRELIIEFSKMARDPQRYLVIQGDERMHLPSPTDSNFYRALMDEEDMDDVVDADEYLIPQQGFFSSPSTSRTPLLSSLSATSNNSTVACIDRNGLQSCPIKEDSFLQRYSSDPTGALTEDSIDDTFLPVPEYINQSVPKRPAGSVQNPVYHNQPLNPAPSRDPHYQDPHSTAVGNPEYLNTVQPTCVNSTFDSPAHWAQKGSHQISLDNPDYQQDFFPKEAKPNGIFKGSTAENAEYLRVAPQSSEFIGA
settings: at 1 µM;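 note: values are mean inhibition figures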
The answer consists of two parts: a number and, after it, its unit.

FC(F)(F)c1ccc(-c2nn3ncccc3c2-c2ccnc(Nc3ccc4c(c3)OCCO4)n2)cc1 = 19.2%
COc1cc2ncnc(Nc3ccc(C)c(O)c3)c2cc1OC = 80.9%
Cc1ccc2c(-c3ccnc(Nc4cccc(C(F)(F)F)c4)n3)c(-c3ccccc3)nn2n1 = 70.3%
c1ccc(Nc2ncc(-c3ccccc3)o2)cc1 = 10.5%
Nc1ccc(C#Cc2cncnc2Nc2ccc(OCc3cccc(F)c3)c(Cl)c2)cc1 = 82.8%
O=C1Nc2ccc(-c3cccnc3)cc2C1=Cc1cc(Br)c(O)c(Br)c1 = 5.08%

Please go through the list and note inhibition for each compound.
1. CCn1c(-c2nonc2N)nc2ccc(F)cc21
2. Cc1cc(Cl)cc2c1NC(=O)C2=NNc1ccc(S(N)(=O)=O)cc1

1: 13.4%; 2: 1.34%

Please go through the list and note inhibition for each compound.
1. O=S(=O)(CCOCc1ccc(-c2ccc3ncnc(Nc4ccc(OCc5cccc(F)c5)c(Cl)c4)c3c2)o1)c1ccccc1
2. NC(=O)c1sc(-n2cnc3ccccc32)cc1OCc1ccccc1Br

1: 84.7%; 2: 0.93%

Sourced from ChEMBL document CHEMBL1961873
